Target: UniProt:Q92630
Sequence (Q92630 whole entry): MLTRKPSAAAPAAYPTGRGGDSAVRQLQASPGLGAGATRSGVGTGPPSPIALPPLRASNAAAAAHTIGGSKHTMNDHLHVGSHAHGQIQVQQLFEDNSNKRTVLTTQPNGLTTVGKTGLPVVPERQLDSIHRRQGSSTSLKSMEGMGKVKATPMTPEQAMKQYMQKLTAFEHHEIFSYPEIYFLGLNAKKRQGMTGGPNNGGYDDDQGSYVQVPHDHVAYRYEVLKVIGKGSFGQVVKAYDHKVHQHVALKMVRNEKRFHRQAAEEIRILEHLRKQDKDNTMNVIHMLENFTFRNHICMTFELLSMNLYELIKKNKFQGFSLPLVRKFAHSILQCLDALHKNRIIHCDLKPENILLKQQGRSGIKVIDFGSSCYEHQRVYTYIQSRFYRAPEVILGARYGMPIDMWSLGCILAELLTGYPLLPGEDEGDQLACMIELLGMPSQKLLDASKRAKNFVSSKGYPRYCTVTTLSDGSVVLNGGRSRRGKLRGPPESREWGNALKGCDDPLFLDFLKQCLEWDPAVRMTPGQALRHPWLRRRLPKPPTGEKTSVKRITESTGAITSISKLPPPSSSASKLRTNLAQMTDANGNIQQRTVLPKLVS
Measured pIC50, listed per entry.
The meaning of pIC50 here: minus log10 of the concentration in molar units.

As a guide, the following entries are already answered.
O=C1NC(NC2CCNC2=O)=N/C1=C\c1ccc2ncsc2c1 (racemic) | 5.78
O=C1NC(NCc2cccnc2)=N/C1=C\c1ccc2ncsc2c1 | 5.70
O=C1NC(N[C@@H]2CCCOC2)=N/C1=C\c1ccc2ncsc2c1 | 5.93
CC1(NC2=N/C(=C\c3ccc4ncsc4c3)C(=O)N2)CCNC1=O (racemic) | 6.72

query: Look up pIC50 for this compound: CC1(C)C2CCC1(C)[C@H](NC1=N/C(=C\c3ccc4ncsc4c3)C(=O)N1)C2 (stereo not given in full)
result: 6.75
